Below, each entry is listed with its recorded koff.
Target: T1, sIL-6R (soluble IL-6 receptor; SBH Sciences) (human, UniProt P08887 20-365)
T1 construct: also called human IL-6R
T1 sequence: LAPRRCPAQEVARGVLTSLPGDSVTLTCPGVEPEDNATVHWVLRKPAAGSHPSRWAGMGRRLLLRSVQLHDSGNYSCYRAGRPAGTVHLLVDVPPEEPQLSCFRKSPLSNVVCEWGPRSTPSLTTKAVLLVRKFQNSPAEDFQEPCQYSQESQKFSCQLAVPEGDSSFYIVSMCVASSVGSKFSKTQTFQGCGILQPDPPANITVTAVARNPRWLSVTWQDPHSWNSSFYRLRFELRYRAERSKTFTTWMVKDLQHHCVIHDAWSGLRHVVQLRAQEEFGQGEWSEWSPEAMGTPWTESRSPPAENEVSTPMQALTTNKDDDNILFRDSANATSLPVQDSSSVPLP
Assay: SPR (BIAcore 3000), antibody on chip, sIL-6R analyte, 25 C
The reply should contain only the number, in s⁻¹.

[ask] Sample 214# (antibody, human IgG1, kappa, V domains shown) VH: QVQLQESGPGLVRPSQTLSLTCTVSGYSITSDHAWSWVRQPPGRGLEWIGYISYSGITTYNPSLKSRVTMLRDTSKNQFSLRLSSVTAADTAVYYCARCLARMTAIDFWGQGSLVTVSS VL: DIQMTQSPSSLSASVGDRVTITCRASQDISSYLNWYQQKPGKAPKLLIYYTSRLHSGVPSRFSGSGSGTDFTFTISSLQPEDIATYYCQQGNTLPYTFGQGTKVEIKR — what was its koff?
[reply] 4.69e-05

More entries:
[ask] Sample Tocilizumab (antibody, human IgG1, kappa, V domains shown, also called 25; 25(control)) VH: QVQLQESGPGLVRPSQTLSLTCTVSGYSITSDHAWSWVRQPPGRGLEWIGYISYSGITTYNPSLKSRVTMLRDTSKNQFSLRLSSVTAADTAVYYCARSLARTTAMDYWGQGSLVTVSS VL: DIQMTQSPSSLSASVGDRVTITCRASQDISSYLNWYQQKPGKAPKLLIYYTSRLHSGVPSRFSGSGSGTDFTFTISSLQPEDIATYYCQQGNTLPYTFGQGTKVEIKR — what was its koff?
[reply] 0.000341
